biological target: T1, human transferrin receptor (recombinant, for surface plasmon resonance) (human, UniProt P02786 89-760); experiment: SPR 25C
T1 construct: also called huTfR; human transferrin receptor-biotinylated
T1 sequence (P02786 89-760 limits assumed): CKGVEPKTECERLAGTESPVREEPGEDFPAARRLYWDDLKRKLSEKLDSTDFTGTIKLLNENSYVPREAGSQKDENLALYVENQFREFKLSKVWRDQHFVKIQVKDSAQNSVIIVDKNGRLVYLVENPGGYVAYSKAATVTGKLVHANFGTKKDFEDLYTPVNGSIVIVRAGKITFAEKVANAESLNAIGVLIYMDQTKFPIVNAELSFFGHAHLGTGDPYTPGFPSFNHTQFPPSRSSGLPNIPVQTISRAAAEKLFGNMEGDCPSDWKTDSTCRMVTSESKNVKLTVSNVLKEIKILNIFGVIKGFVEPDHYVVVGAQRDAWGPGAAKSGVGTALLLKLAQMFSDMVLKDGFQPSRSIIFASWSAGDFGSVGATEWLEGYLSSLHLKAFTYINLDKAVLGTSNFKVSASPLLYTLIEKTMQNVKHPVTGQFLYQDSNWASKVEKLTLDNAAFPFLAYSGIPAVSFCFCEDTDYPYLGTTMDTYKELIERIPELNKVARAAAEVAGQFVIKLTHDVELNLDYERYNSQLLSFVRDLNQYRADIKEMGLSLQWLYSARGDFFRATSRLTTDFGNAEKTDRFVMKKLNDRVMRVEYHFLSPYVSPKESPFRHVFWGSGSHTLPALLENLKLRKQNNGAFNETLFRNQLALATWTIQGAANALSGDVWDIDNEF
Assignment: determine reported koff for the given binders.
Give bare numbers, in s⁻¹.

Provide the reported koff of each entry below, same order.
1. 2/99 VH8/VL1 (antibody, V domains shown) VH: QQLVETGGGLIQPGGSLRLSCAASGFSLSSYAMSWVRQAPGKGLEWIGYIWSGGSTDYASWAKGRFTISKTSTTLYLQMNSLRAEDTAVYYCARRYGTSYPDYGDANGFDPWGQGTLVTVSS VL: DIQMTQSPSSLSASVGDRVTITCRASQSISSYLNWYQQKPGKAPKLLIYRASSLQSGVPSRFSGSGSGTDFTLTISSLQPEDFATYYCQQSYSSSNVDNTFGGGTKVEIK
2. 2/99 VH23-DANG/VL4 (antibody, V domains shown) VH: QSMQESGPGLVKPSQTLSLTCTVSGFSLSSYAMSWIRQHPGKGLEWIGYIWSGGSTDYASWAKSRVTISKTSTTVSLKLSSVTAADTAVYYCARRYGTSYPDYGDANGFDPWGQGTLVTVSS VL: AYQMTQSPSSLSASVGDRVTITCRASQSISSYLSWYQQKPGKAPKLLIYRASTLASGVPSRFSGSGSGTDFTLTISSLQPEDFATYYCQQSYSSSNVDNTFGGGTKVEIK
3. 2/99 VH6/VL8 (antibody, V domains shown) VH: QQLVETGGGLIQPGGSLRLSCAASGFSLSSYAMSWVRQAPGKGLEWIGYIWSGGSTDYADSVKGRFTISRDNSKNTLYLQMNSLRAEDTAVYYCARRYGTSYPDYGDANGFDPWGQGTLVTVSS VL: AYQLTQSPSSLSASVGDRVTITCRASQSISSYLSWYQQKPGKAPKLLIYRASTLASGVPSRFSGSGSGTDFTLTISSLQPEDFATYYCQQSYSSSNVDNTFGGGTKVEIK

Data returned:
1. 0.00319
2. 0.000761
3. 0.00301

Cited source: patent US20180291110A1
